Where do these numbers come from? They come from patent US12264134B2.

For each record, write down the corresponding IC50.
System Tested: IDO1 (Homo sapiens, UniProt P14902)
Sequence (P14902 whole entry): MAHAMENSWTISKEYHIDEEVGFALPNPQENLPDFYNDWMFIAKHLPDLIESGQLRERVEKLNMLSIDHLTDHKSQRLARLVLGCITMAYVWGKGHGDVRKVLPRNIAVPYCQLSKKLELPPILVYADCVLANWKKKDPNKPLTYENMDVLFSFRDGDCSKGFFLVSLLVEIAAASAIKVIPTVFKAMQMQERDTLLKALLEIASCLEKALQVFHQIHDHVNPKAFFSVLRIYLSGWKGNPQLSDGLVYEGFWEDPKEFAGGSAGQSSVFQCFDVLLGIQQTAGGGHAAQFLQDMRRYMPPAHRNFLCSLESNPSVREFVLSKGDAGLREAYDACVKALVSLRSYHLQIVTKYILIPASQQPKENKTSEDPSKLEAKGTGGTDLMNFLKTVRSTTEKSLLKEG
Procedure Text: IDO1 Cellular Assay in HeLa Cells Stimulated with IFNγ
Assay type: cell-based
Test Settings: read-out: HeLa Cell Potency, IC50
Please reply with the bare figure in nM and do not write the unit itself.

QUERY: What measured IC50 is associated with COCC(=O)N1CCN(C(=O)c2nn(CC(=O)N3CCN(c4cccc(C)c4C)CC3)c3c2CCC3)CC1 on IDO1 (Homo sapiens, UniProt P14902)?
RESULT: 22.4

QUERY: What measured IC50 is associated with COCCN1[C@H](C)CN(C(=O)c2nn(CC(=O)N3CCN(c4cccc(C)c4C)CC3)c3c2CCC3)C[C@@H]1C on IDO1 (Homo sapiens, UniProt P14902)?
RESULT: 6.12

QUERY: What measured IC50 is associated with Cc1c(F)ccc(N2CCN(C(=O)Cn3nc(C(=O)N4CCC(OCCO)CC4)c4c3C[C@H]3C[C@@H]43)C3(CC3)C2)c1C on IDO1 (Homo sapiens, UniProt P14902)?
RESULT: 1.47

QUERY: What measured IC50 is associated with Cc1cccc(N2CCN(C(=O)Cn3nc(C(=O)N4CCCC4)c4c3CCC(F)(F)C4)CC2)c1C on IDO1 (Homo sapiens, UniProt P14902)?
RESULT: 8.13

QUERY: What measured IC50 is associated with Cc1cccc(N2CCN(C(=O)Cn3nc(C(=O)N4CCC(n5nccn5)CC4)c4c3CCC4)CC2)c1C on IDO1 (Homo sapiens, UniProt P14902)?
RESULT: 3.92

QUERY: What measured IC50 is associated with Cc1cccc(N2CCN(C(=O)Cn3nc(C(=O)N4CCC(OCCO)CC4)c4c3C[C@H]3C[C@@H]43)[C@H]3CCC[C@@H]32)c1C (racemic) on IDO1 (Homo sapiens, UniProt P14902)?
RESULT: 5.03

QUERY: What measured IC50 is associated with Cc1cccc(N2CCN(C(=O)Cn3nc(C(=O)N4CCC(O)CC4)c4c3C[C@H]3C[C@@H]43)C3(CC3)C2)c1C on IDO1 (Homo sapiens, UniProt P14902)?
RESULT: 0.89

QUERY: What measured IC50 is associated with Cc1c(Cl)cccc1N1CCN(C(=O)Cn2nc(C(=O)N3C[C@@H](C)O[C@@H](C)C3)c3c2CCC3)CC1 on IDO1 (Homo sapiens, UniProt P14902)?
RESULT: 3.6

QUERY: What measured IC50 is associated with Cc1cccc(N2CCN(C(=O)Cn3nc(C(=O)N4CC5CCC(F)(F)C5C4)c4c3CCC4)CC2)c1C (centres unmarked) on IDO1 (Homo sapiens, UniProt P14902)?
RESULT: 3.19

QUERY: What measured IC50 is associated with Cc1cccc(N2CCN(C(=O)Cn3nc(C(=O)N4CCN(C(=O)CO)CC4)c4c3C[C@H]3C[C@@H]43)C(C(F)F)C2)c1C (some centres unmarked) [Example 390] on IDO1 (Homo sapiens, UniProt P14902)?
RESULT: 226

QUERY: What measured IC50 is associated with Cc1cccc(N2CCN(C(=O)Cn3nc(C(=O)N4CC[C@@H](O)[C@@H](F)C4)c4c3C(O)CC4)CC2)c1C (single isomer, unassigned) [Example 422] on IDO1 (Homo sapiens, UniProt P14902)?
RESULT: 2950

QUERY: What measured IC50 is associated with Cc1cccc(N2CCN(C(=O)Cn3nc(C(=O)N4CCC(O)(C(F)(F)F)CC4)c4c3CCC4)CC2)c1C on IDO1 (Homo sapiens, UniProt P14902)?
RESULT: 4.53

QUERY: What measured IC50 is associated with Cc1cccc(N2CCN(C(=O)Cn3nc(C(=O)N4CCO[C@@H](CO)C4)c4c3C[C@H]3C[C@@H]43)C3(CC3)C2)c1C on IDO1 (Homo sapiens, UniProt P14902)?
RESULT: 1.17

QUERY: What measured IC50 is associated with Cc1ccc(N2CCN(C(=O)Cn3nc(C(=O)N4C[C@@H](C)O[C@@H](C)C4)c4c3CCC4)CC2)cc1 on IDO1 (Homo sapiens, UniProt P14902)?
RESULT: 142
